test system: T-47D breast; experiment: NCI-60 one-dose screen, 48 h (100 = growth as untreated, 0 = no growth, -100 = all killed); conditions: 10 µM
About 83,000 compounds went through this panel and 20% of them were active in at least one assay; those are over-represented in the sample as a whole.
Parameter measured: growth (%)

* C/C(=N/NC(N)=O)c1ccco1 | 83.5
* OCc1ccc(-c2ccc(-c3ccc(CO)s3)o2)s1 | -15.5
* CCC(=O)Oc1ccc(OC)cc1 | 101
* CCN1C(=O)/C(=C/C=C/N(C)c2ccccc2)SC1=S | 79.8
* COc1ccccc1N=Nc1c(O)ccc2cc(S(=O)(=O)O)ccc12 | 91.4
* Cc1ccc(/C(C#N)=C/c2ccc3c(c2)OCO3)cc1 | 64.1
* O=C(CC(=O)c1ccccc1O)c1ccccc1 | 79.7
* CC(C)CCOC(=O)c1ccccc1 | 99.5
* Cc1nc2ccccc2c(C(=O)O)c1O | 91.3
* CC1(C)Nc2cccc3c(N=Nc4ccc(N=Nc5ccccc5)c5ccccc45)ccc(c23)N1 | 76.7
* O=C1OC(=O)C2C1C1(Cl)C(Cl)=C(Cl)C2(Cl)C2C(=O)OC(=O)C21 (stereo unspecified) | 95.4
* CCCCCCCCCCC1CO1 (stereo unspecified) | 103
* CC1CC(O)C2C3(C)CCCC2(COC3=O)C12CCC1(CCOC1=O)O2 (stereo unspecified) | 102
* CCCCC(O)c1ccccc1 (stereo unspecified) | 87.2
* CCOc1ccc(Br)cc1/C=N\N=C\c1cc(Br)ccc1OCC | 93
* O=S(=O)(O)c1ccc(Cl)c(Cl)c1 | 105
* COc1cc([C@@H]2c3cc4c(cc3[C@H](O)[C@H]3COC(=O)[C@H]23)OCO4)cc(OC)c1OC | 65.5
* Nc1ccc(NC(=O)c2cccc(N)c2)cc1 | 95.9
* Clc1ccc(-c2nnc(-c3cccc4ccccc34)o2)cc1 | 53.4
* CCNc1nc2c(cnn2C)c(=O)[nH]1 | 92.5
* CCN(CC)c1ccc2nc3ccc(=[N+](CC)CC)cc-3oc2c1 | -2.86
* CC(=O)c1ccc(C)c(N)c1 | 99.8
* COC(=O)c1cccnc1 | 118
* CC(=O)OCC1CCCO1 (stereo unspecified) | 93.1
* CCOC(=O)c1[nH]c(C)c(C(=O)O)c1C | 109
* O=S(=O)(Cc1ccccc1)c1ccccc1 | 110
